# Tested on: ACHN renal
# assay-remarks: NCI tumour cell line growth inhibition, 48 h
# reported TGI; entries follow

molecule	TGI
O=C1C2Cc3ccccc3CN2C(=O)N1CCN1CCCC1 (centres undefined)	> 100 µM
O=c1ccc(=O)c2c(=O)c3ccccc3c(=O)c1=2	> 100 µM
c1cc(CNC2C3CCC(C3)C2c2c[nH]c3ccccc23)cc(CNC2C3CCC(C3)C2c2c[nH]c3ccccc23)c1 (centres undefined)	2.04 µM
CCOc1cc(C2CC(c3ccc(NS(=O)(=O)c4cc([N+](=O)[O-])ccc4C)cc3)=NN2)ccc1O (centres undefined)	76.7 µM
C[N+]1(C)C/C(=C\c2ccncc2)C(=O)/C(=C/c2ccncc2)C1	> 100 µM
Cc1c(-c2ccccc2)c(C#N)c2nnc(C(N)=O)c(N)n12	> 100 µM
COc1ccc(C(=O)N2c3ccccc3Sc3ccccc32)c(C(F)(F)F)c1	> 100 µM
C=C=C(C(=O)OC)S(=O)c1ccc([N+](=O)[O-])cc1[N+](=O)[O-] (centres undefined)	> 68.5 µM
O=C([CH-]C(=O)C(F)(F)F)c1ccccc1.O=C([CH-]C(=O)C(F)(F)F)c1ccccc1.O=C([CH-]C(=O)C(F)(F)F)c1ccccc1.O=C([CH-]C(=O)C(F)(F)F)c1ccccc1.[Eu+3].c1ccncc1	> 100 µM

====

# Tested on: SW-620 colon
# assay-remarks: NCI tumour cell line growth inhibition, 48 h
Where a SMILES comes first, the peptide text is derived from it. The star is where a group is joined. Boc = CC(C)(C)OC(=O)*; OBn = c1ccc(CO*)cc1
# reported TGI; entries follow

compound	TGI
N#C[C@@H]1C(n2ccc(N)nc2=O)O[C@H](CO)[C@H]1O (stereo partly specified)	> 100 µM
CC(=O)c1cc2c(s1)C(=O)c1ccccc1C2=O	9.67 µM
O=C1Nc2cccc3cc(NCC(O)CCl)cc1c23 (stereo unspecified)	> 100 µM
O=[N+]([O-])c1nccn1COCCBr	> 100 µM
CC(C)(C)OC(=O)NC(Cc1ccccc1)C(=O)NC(Cc1ccccc1)C(=O)NCC(=O)OCc1ccccc1 (stereo not drawn) (Boc-Phe-Phe-Gly-OBn; configuration not given here)	28.4 µM
CC1CCN(CC(=O)N2c3ccccc3Sc3cc4ccccc4cc32)CC1	> 100 µM
O=C(O)CSc1ncccc1[N+](=O)[O-]	> 100 µM
CSc1c(C#N)c2n(c3ccccc13)c1ccccc1[n+]2C	> 100 µM
Cc1c(Cl)cccc1NC(=O)CC1C(=O)Nc2ccccc2S1(=O)=O (stereo unspecified)	43.7 µM
NC(=O)c1ccc(C2C3=C(CCCC3=O)OC3=C2C(=O)c2ccccc2C3=O)cc1 (stereo unspecified)	1.72 µM
Cc1ccc(NC(=O)Cn2c(Br)nc3c2c(=O)n(C)c(=O)n3C)cc1	33.2 µM
CCN(CC)CCCC(C)Nc1c2ccc(C)cc2nc2ccc(OC)cc12 (stereo unspecified)	10.2 µM
COc1cc(C2SCC(=O)N2c2ccc(Oc3ccc(Cl)cc3)c(Cl)c2)cc(OC)c1OC (stereo unspecified)	58.3 µM
COC(=O)C1=C(C(=O)OC)SC(=C(Cl)C(=S)Sc2ccccc2N)S1	> 100 µM
CC[C@@]1(O)C(=O)OCc2c1cc1n(c2=O)Cc2cc3cc(N)ccc3nc2-1	5.06 µM
c1ccc2c(c1)nc1n2CCSC1	> 100 µM
COC(=O)C1=C(CS(=O)c2ccccc2[N+](=O)[O-])ON(C)C1c1ccccc1 (stereo unspecified)	88.6 µM
C[C@]12CC[C@@H]3c4ccc(OC(=O)c5ccccc5)cc4CC[C@H]3[C@@H]1CC[C@@H]2Oc1c2ccccc2nc2ccccc12	> 50 µM
O=c1[nH]c(=O)n(C2OC3COC2C3O)cc1F (stereo unspecified)	> 100 µM
Fc1cccc(Cl)c1/C=N\N=C1c2ccccc2-c2ccccc21	> 100 µM
Cc1cc(N/N=C/c2nc(-c3ccc(Cl)cc3)oc2C)c2cc(Cl)ccc2n1	3.51 µM
NCCCCNCCCNC(=O)c1nc(-c2csc(CCN)n2)sc1Cl	> 100 µM
CCOc1cc(C2CC(c3ccc(NS(=O)(=O)c4cc([N+](=O)[O-])ccc4C)cc3)=NN2)ccc1O (stereo unspecified)	> 100 µM
CCOC(=O)C(/C=N\C(=S)Nc1ccc(OCC)cc1)=C(/O)c1ccccc1	> 100 µM
O=c1[nH]nc(Cc2ccccc2)n1-n1cnnc1	> 100 µM
COc1ccc(/C=C2\N=C(c3ccccc3)N(C3Nc4cc5c(cc4S3)NC(N3C(=O)/C(=C/c4ccc(OC)cc4)N=C3c3ccccc3)S5)C2=O)cc1 (stereo unspecified)	> 100 µM
CCN(CCNc1ccc(C)c2sc3ccccc3c(=O)c12)CC(C)(C)O	15.8 µM
CC(C)OP(=O)(OC(C)C)C(C(C)C)N(C)/C(F)=N/C(F)(F)F (stereo unspecified)	> 100 µM
Cc1cc(-c2nnc3n2CCCCC3)c(C)n1-c1ccc(Cl)c(Cl)c1	50.9 µM
NNc1nncn1N	> 100 µM
Nc1nc(CCC(=O)Nc2cccc(C(F)(F)F)c2)cc(-c2ccc3ccccc3c2)n1	> 100 µM
CNC(=S)N/N=C/c1ccc([N+](=O)[O-])s1	> 10 µM
O=C(NCc1ccc(Cl)cc1)c1cc2sccc2nc1C(F)(F)F	> 100 µM
C[N+](C)(C)c1ncnc2c1ncn2C1CCCCO1 (stereo unspecified)	> 100 µM
COC(=O)CCCCCN=Cc1c(O)c(O)c(C(C)C)c2cc(C)c(-c3c(C)cc4c(C(C)C)c(O)c(O)c(C=NCCCCCC(=O)OC)c4c3O)c(O)c12	> 32.5 µM
COc1cc(/C=C2/N=C(c3ccccc3)N(C3=NNC4(C(=O)N3)c3ccccc3-c3ccccc34)NC2=O)ccc1O	73.6 µg/mL
Oc1ccc(CCc2cc(O)cc(O)c2)cc1	> 100 µM
CCO/C(O)=C(/C(=N)N1CCCC1)C(=O)Nc1cccc(C(F)(F)F)c1	> 100 µM
CN(C)C(=O)O[C@@H]1CN[C@@H](C#Cc2cc3ncnc(Nc4ccc(OCc5cccc(F)c5)c(Cl)c4)c3s2)C1	> 25 µM
COc1ccc(C(=O)N2c3ccccc3Sc3ccccc32)c(C(F)(F)F)c1	> 100 µM
CCN(CC)c1ccc2c(c1)Nc1cc(=C(C#N)C#N)c3ccccc3c1=N2	> 100 µM

====

# reported TGI; entries follow
# Tested on: MOLT-4 leukemia
# assay-remarks: NCI tumour cell line growth inhibition, 48 h
parameter: TGI

>>> df
                                    compound  value_reported
 0  COc1cc(S(C)(=O)=O)ccc1Nc1nc2ccc(-c3ccc(NC(=O)[C@H](C)c4ccc(F)cc4)cc3)cn2n1        > 100 µM
 1  Cc1ccc2c(c1)C(c1cccc3ccccc13)OC2=O (stereo not drawn)        > 100 µM
 2  CC1(C)Oc2ccc(NC(=O)CCC(N)C(=O)O)cc2O1 (stereo not drawn)        > 100 µM
 3  CC(C)[C@H]1C(=O)N[C@@H](CCCN=C(N)N)C(=O)NCC(=O)N[C@@H](CC(=O)O)C(=O)N[C@H](Cc2ccccc2)C(=O)N1C        > 100 µM
 4  O=C(NCCCNCCNC(=O)c1cc(-c2ccccc2)nc2ccccc12)c1cc(-c2ccccc2)nc2ccccc12         4.31 µM
 5             CN=C1SC(=Nc2ccc(N(C)C)cc2)N1C        > 100 µM
 6  Cc1c(NC2(C)C(=O)N(/N=C/c3ccccc3)N=C2c2ccccc2)n[nH]c1-c1ccccc1 (stereo not drawn)        > 100 µM
 7    COc1cc(Cn2c(-c3nonc3N)nc3ccccc32)ccc1C        > 100 µM
 8  COc1c2cc(C(C)(C)C)cc1Cc1cccc(c1O)Cc1cc(C(C)(C)C)cc(c1OC)Cc1cccc(c1O)Cc1cc(C(C)(C)C)cc(c1OC)Cc1cccc(c1O)C2        > 100 µM
 9            O=C1c2ccccc2-n2c1nc1ccccc1c2=O        > 100 µM
10              CC(=Nc1ccncc1)C(C)=Nc1ccncc1         52.7 µM
11  COC(=O)CCCCCN=Cc1c(O)c(O)c(C(C)C)c2cc(C)c(-c3c(C)cc4c(C(C)C)c(O)c(O)c(C=NCCCCCC(=O)OC)c4c3O)c(O)c12         16.5 µM
12  Cc1ccc(NC(=O)Cn2c(Br)nc3c2c(=O)n(C)c(=O)n3C)cc1        > 100 µM
13  C[C@]12CC[C@@H]3c4ccc(O)cc4C(O)C[C@H]3[C@@H]1CCC2=O (stereo partly drawn)        > 100 µM
14  CCN(CC)C1CC(n2cc(C)c(=O)[nH]c2=O)OC1CO (stereo not drawn)        > 100 µM
15  COc1c(C)c(OC)c2c(c1O)[C@@H]1[C@@H]3Cc4c(OC)c(C)c(OC)c(O)c4[C@H](CNC(=O)c4cnc5ccccc5n4)N3[C@@H](C#N)[C@H](C2)N1C      0.00262 µM
16  COc1cc(/C=C2/N=C(c3ccccc3)N(C3=NNC4(C(=O)N3)c3ccccc3-c3ccccc34)NC2=O)ccc1O       123 µg/mL
17  O=c1[nH]c2cc3[nH]c4ncccc4c(=O)c3cc2[nH]1         > 10 µM

Provenance of the data: PubChem BioAssay (NCI)
